# System name: DCN1 (DCUND1) protein PONY domain (Homo sapiens (Human))
# Sequence (Q96GG9 60-248): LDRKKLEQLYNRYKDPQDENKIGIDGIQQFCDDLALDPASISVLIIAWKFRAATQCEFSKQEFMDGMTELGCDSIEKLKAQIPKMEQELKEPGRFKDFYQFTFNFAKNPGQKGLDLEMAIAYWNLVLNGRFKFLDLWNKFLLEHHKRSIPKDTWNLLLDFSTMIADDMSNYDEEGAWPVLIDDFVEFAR
# Measurement notes: TR-FRET assay (binding to DCN-1, displacement of FAM-labeled probe)
# Condition info: read-out: TR FRET IC50 1 hr; 1 hr after treatment with compound
Recorded metric: IC50

For C=C(C(=O)NCc1cccc([C@@H]2c3cnn(-c4ccccc4)c3N(CC)C(=O)[C@H]2NC(=O)c2cccc(C(F)(F)F)c2)c1)C(C)N1CCN(C2COC2)CC1 (stereo partly shown) [Compound I-317] , what is its reported IC50?
≤ 200 nM

For CCN1C(=O)[C@H](NC(=O)c2cccc(C(F)(F)F)c2)[C@@H](c2cccc(NC(=O)/C=C/C(=O)OC)c2)c2c(C)nn(-c3ccccc3)c21 (racemic) [Compound I-141] , what is its reported IC50?
≤ 200 nM

For C=C(C(=O)NCc1cccc([C@@H]2c3cnn(-c4ccccc4)c3N(CC)C(=O)[C@H]2NC(=O)c2csc(C)n2)c1)C(C)N(C)C1COC1 (stereo partly shown) [Compound I-278] , what is its reported IC50?
≤ 200 nM

For CCN1C(=O)[C@@H](NC(=O)c2nccc(C(F)(F)F)n2)[C@H](c2cccc(NC(=O)C3=CCN(C)C3)c2)c2c(C)nn(-c3ccccc3)c21 [Compound I-37] , what is its reported IC50?
≤ 200 nM

For C=C(CN1CC(O)C1)C(=O)NCc1cccc([C@@H]2c3cnn(-c4ccccc4)c3N(CC)C(=O)[C@H]2NC(=O)c2cccc(C(F)(F)F)c2)c1 [Compound I-291] , what is its reported IC50?
≤ 200 nM

For CCN1C(=O)[C@H](NC(=O)c2cccc(C(F)(F)F)c2)[C@@H](c2cccc(NC(=O)C3=CCC3)c2)c2c(C)nn(-c3ccccc3)c21 [Compound I-94] , what is its reported IC50?
1000 to 3000 nM

For CCN1C(=O)C(NC(=O)c2cccc(C(F)(F)F)c2)[C@@H](c2cccc(NC(=O)C(Cl)Cl)c2)c2c(C)nn(-c3ccccc3)c21 (stereo in doubt) [Compound I-42] , what is its reported IC50?
> 3000 nM

Recorded values, source patent US12435087B2.
